Origin of values: paper PMC9021956

target: HLA-A3303 (Homo sapiens, UniProt P04439, A270S/D185E/E176V/E277Q/E87N/F33T/G231S/H175R/I121M/I218V/I322F/K168Q/L300P/L318F/M331R/P217A/Q86R/Q94H/R138Q/T323A/T345S/T97I/V358M); assay: cell-based
Residues, ends and D or L forms follow the SMILES beside them.
IC50 values, listed per item

- Compound: "CC(C)C[C@H](NC(=O)[C@@H](N)Cc1ccccc1)C(=O)N1CCC[C@H]1C(=O)N[C@@H](CO)C(=O)N[C@@H](CC(=O)O)C(=O)N[C@@H](Cc1ccccc1)C(=O)N[C@@H](Cc1ccccc1)C(=O)N1CCC[C@H]1C(=O)N[C@@H](CO)C(=O)O [Epitope P67] (H-FLPSDFFPS-OH; N-terminus and C-terminus assumed)"
  IC50: "> 15 µM"

The compound CC[C@H](C)[C@H](N)C(=O)N[C@@H](CC(C)C)C(=O)N[C@@H](CS)C(=O)N[C@@H](Cc1c[nH]c2ccccc12)C(=O)NCC(=O)N[C@@H](CCC(=O)O)C(=O)N[C@@H](CC(C)C)C(=O)N[C@@H](CCSC)C(=O)N[C@@H](CC(N)=O)C(=O)N[C@@H](CC(C)C)C(=O)O [Epitope P74] (H-ILCWGELMNL-OH; N-terminus and C-terminus assumed) showed IC50 equal to > 15 µM

The compound CC(C)C[C@H](NC(=O)[C@@H](N)Cc1ccccc1)C(=O)N[C@@H](Cc1c[nH]c2ccccc12)C(=O)N[C@@H](CCC(=O)O)C(=O)N[C@@H](Cc1c[nH]c2ccccc12)C(=O)N[C@@H](C)C(=O)N[C@@H](CO)C(=O)N[C@H](C(=O)N[C@@H](CCCNC(=N)N)C(=O)O)C(C)C [Epitope P78] (H-FLWEWASVR-OH; N-terminus and C-terminus assumed) showed IC50 equal to < 5 µM

The compound CC(C)C[C@H](N)C(=O)N[C@@H](Cc1ccc(O)cc1)C(=O)N[C@@H](CO)C(=O)N[C@@H](CO)C(=O)N[C@H](C(=O)N[C@H](C(=O)N1CCC[C@H]1C(=O)N[C@@H](CS)C(=O)N[C@@H](Cc1ccccc1)C(=O)O)C(C)C)[C@@H](C)O [Epitope P55] (H-LYSSTVPCF-OH; N-terminus and C-terminus assumed) showed IC50 equal to > 15 µM
